// reported half-life at 1 μM for each item listed
# PROCEDURE_TEXT: Microsomal stability: incubation with human liver microsomes, residual parent compound by HPLC-MS/MS
# Assay type: in vitro ADME
# STATED_CONDITIONS: human liver microsomes 0.5 mg/ml, compound 1 μM, pH 7.4, 37° C., up to 60 min; read-out: t1/2 hLM

// below: answered compounds
C[C@]1(O)C[C@H](n2ncc(-c3onc(-c4ccccc4Cl)c3C(=O)OC3CC3)c2C(F)(F)F)C1 ... > 100 min
COC(=O)c1c(-c2c(F)cccc2Cl)noc1-c1cnn([C@H]2C[C@](C)(O)C2)c1C(F)(F)F ... 40 to 100 min
CCOCc1c(-c2c(F)cccc2Cl)noc1-c1cnn(C[C@@H](C)O)c1C(F)(F)F ... 10 to 40 min

In the following, a different compound is considered.
Entry CCOC(=O)c1c(-c2c(F)cccc2Cl)noc1-c1cnn(C[C@@H](C)O)c1C(F)(F)F : reported half-life at 1 μM = ? 10 to 40 min

----------
# PROCEDURE_TEXT: Microsomal stability: incubation with human liver microsomes, residual parent compound by HPLC-MS/MS
# Format: in vitro ADME
# STATED_CONDITIONS: pH 7.4; human liver microsomes, 1 μM compound, 0.5 mg/ml HLM, 37° C., up to 60 min; read-out: t1/2 hLM
PARAMETER: half-life at 1 μM

COCc1c(-c2cccc(OCCN3CCOCC3)c2Cl)noc1-c1cnn([C@H]2C[C@](C)(O)C2)c1C(F)(F)F ... 2 to 9.99 min
C[C@]1(O)C[C@@H](n2ncc(-c3onc(-c4cccc(OCCN5CCOCC5)c4Cl)c3COC3CC3)c2C(F)(F)F)C1 ... 2 to 9.99 min
COCc1c(-c2cccc(OCCN3CCOCC3)c2Cl)noc1-c1cnn([C@H]2C[C@@](C)(O)C2)c1C(F)(F)F ... 2 to 9.99 min
Cc1c(-c2onc(-c3cccc(OCCN4CCCC4)c3Cl)c2-c2ncccn2)cnn1CCC(C)(C)O ... > 100 min
Cc1c(-c2onc(-c3ccccc3Cl)c2-c2ncccn2)cnn1[C@H]1C[C@@](C)(O)C1 ... > 100 min
CCN(CC)CCOc1cccc(-c2noc(-c3cnn(CCC(C)(C)O)c3C(F)(F)F)c2-c2ncccn2)c1Cl ... 10 to 40 min

In the following, a different molecule is considered.
Entry CC(C)(O)CCn1ncc(-c2onc(-c3cccc(OCCN4CCOCC4)c3Cl)c2-c2ncccn2)c1C(F)(F)F : reported half-life at 1 μM = ? 2 to 9.99 min

----------
# PROCEDURE_TEXT: Aqueous solubility in 50 mM phosphate buffer (HPLC/DAD)
# Assay type: physicochemical
# STATED_CONDITIONS: 50 mM phosphate buffer, 23 °C, pH 7.4, aqueous buffer, kinetic from dmso stock, aqueous solubility class; read-out: aq. solub.
// reported solubility at 24 h for each item listed

// below: answered molecules
C[C@@H](O)Cn1ncc(-c2onc(-c3cccc(C(=O)N4CCCC4)c3Cl)c2-c2ccncn2)c1C(F)(F)F ... > 10 µM
COCc1c(-c2c(F)cccc2Cl)noc1-c1cnn(C[C@@H](C)O)c1C(F)(F)F ... > 10 µM
Cc1c(-c2onc(-c3ccccc3Cl)c2-c2ncccn2)cnn1[C@H]1C[C@@](C)(O)C1 ... > 10 µM
C[C@H](O)Cn1ncc(-c2onc(-c3c(F)cccc3Cl)c2C(=O)OC2CC2)c1C(F)(F)F ... > 10 µM
OC1(Cn2ncc(-c3onc(-c4c(F)cccc4Cl)c3-c3nccs3)c2C(F)(F)F)CC1 ... 3 to 9.99 µM
CC(C)(O)CCn1ncc(-c2onc(-c3c(F)cccc3Cl)c2COC2CC2)c1C(F)(F)F ... 3 to 9.99 µM
COCc1c(-c2c(F)cccc2Cl)noc1-c1cnn(CC(C)(C)O)c1C(F)(F)F ... > 10 µM
CCOC(=O)c1c(-c2c(F)cccc2Cl)noc1-c1cnn(C[C@@H](C)O)c1C(F)(F)F ... > 10 µM
CC(=O)c1c(-c2c(F)cccc2Cl)noc1-c1cnn(C[C@@H](C)O)c1C(F)(F)F ... > 10 µM
Cc1c(-c2onc(-c3c(F)cccc3Cl)c2COC2CC2)cnn1CCC(C)(C)O ... > 10 µM

Entry CCOC(=O)c1c(-c2c(F)cccc2Cl)noc1-c1cnn(CC(O)CC)c1C(F)(F)F (racemic) : reported solubility at 24 h = ? 3 to 9.99 µM

Entry COC(=O)c1c(-c2c(F)cccc2Cl)noc1-c1cnn(CCC(C)(C)O)c1C : reported solubility at 24 h = ? > 10 µM

Entry C[C@]1(O)C[C@@H](n2ncc(-c3onc(-c4c(F)cccc4Cl)c3-c3ccncn3)c2C(F)(F)F)C1 : reported solubility at 24 h = ? 1 to 2.99 µM

Entry C[C@]1(O)C[C@H](n2ncc(-c3onc(-c4c(F)cccc4Cl)c3C(=O)OC3CC3)c2C(F)(F)F)C1 : reported solubility at 24 h = ? 3 to 9.99 µM

Entry CCOC(=O)c1c(-c2c(F)cccc2Cl)noc1-c1cnn(C[C@H](C)O)c1C(F)(F)F : reported solubility at 24 h = ? > 10 µM

Entry C[C@]1(O)C[C@H](n2ncc(-c3onc(-c4ccccc4Cl)c3C(=O)OC3CC3)c2C(F)(F)F)C1 : reported solubility at 24 h = ? 1 to 2.99 µM
